Test system: MS2 coat protein
MEASUREMENT NOTES: apparent KD of MS2 coat protein; designed switch direction (-1 OFF switch, 1 ON switch): -1; higher = weaker reporter binding
CONDITION DETAILS: input ligand: FMN 200 uM
OBSERVED PROPERTY: apparent KD of MS2 coat protein (nM)
Write the number in nM without appending the unit.

Recorded apparent KD of MS2 coat protein for UGAGUGCUGCGAGGAUAUACAUGAGGAUCACCCAUGUGGUGGUGUGAGGCUUUGCCUCACACCAUGUAGAAGGCGCAGUACUCU [JL ENG2 1.08] (Eterna round: R96, puzzle: Exclusion NG 2) , please?
237

// query: UUUAGUUCAGGAUAUGUAGAAAUUAACAUGAGGAUCACCCAUGUCGAUCCUGAAUUAACUACAGAAGGGAACAUUU [Mod of Brourd 6 - Jieux - Exclusion 5] (Eterna round: R97, puzzle: Exclusion 5)
50

Field entry: GCCGUUAAGGUAGGAUAUGCUCGGUCUGUUCGUGCAGAAGGGCUGGUCGGCGACUUGAGGAUCACCCAAGUGGUCUUAUAGAAA [Mutated MS2 EX1.19] (Eterna round: R96, puzzle: Exclusion NG 1)
99.6

Cool, now UAUUAGUAAGGAUAUCCCACGUAGGACUUCGGUCCUACGUGGGAGAAGGUACAUGAGGAUCACCCAUGUCUAUU [Mod of Fisker 13 - Jieux - Exclusion 4] (Eterna round: R97, puzzle: Exclusion 4)
16.6

====

System: MS2 coat protein
MEASUREMENT NOTES: apparent KD of MS2 coat protein; higher = weaker reporter binding
CONDITION DETAILS: Eterna round: R107; input ligand: theophylline 2 mM
OBSERVED PROPERTY: apparent KD of MS2 coat protein
Note: a bare number is incomplete; add the unit.

Look at this sequence and give its reported apparent KD of MS2 coat protein. ACAUGAGGGCGAAGGAGCGCGUACAUGAGGAUCACCCAUGUCUAUAUCCGUCCGCGUGUAACGCAGGUAGGUCGCGCUGUUAAUU [#14 Exclusion - Arginine B]
20 nM

Continue with AUAUUUAACGGAAGGAGCGCGGAAUAAUAAGUGGGUAAACAUGAGGAUCACCCAUGUAAACCGCAGGUAGGUCGCCGAAUAAUAA [AstrosEXyARgB#4]
86.1 nM

// next record UUCGUAUUGUCGGCCGCCACUGCAACAUGAGGAUCACCCAUGUAAGAAUGGUUGUAAAUAUAUUACAGGACCGGGACAAUAGUAA [JR_ExcTryptoB_Sub018]
23.4 nM

Same thing, different sequence: UAAUCCGGUCCUCGAUAACAUGGGUGAAUACGAGGACCGGUACGGCCGCCACUCGAUAACAUGAGGAUCACCCAUGUAAUAAUAA [|T'-M'-Trp-Ms2|_Design15]
73.6 nM

Proceed to AUUUAUUAGACGGCCGCCACUUGAAAGCGACCUCAUAAAUGGGAACAUGAGGAUCACCCAUGUAAGAGGACCGGGUCUAGUAGAU [TryptB-ms2@45]
318 nM

Okay, and AGUCUUGAACGAAGGAGCGACGUACAUGAGGAUCACCCAUGUGUGGAGCGAAAGCUCCAACGUCAGGUAGGUCGCGUUCGAGACA [Omei Arginine B SS A v2] ?
14.9 nM

====

I'd be grateful if you could share measured apparent KD of MS2 coat protein for these entries.
Tested on: MS2 coat protein
MEASUREMENT NOTES: apparent KD of MS2 coat protein; designed switch direction (-1 OFF switch, 1 ON switch): -1; higher = weaker reporter binding
CONDITION DETAILS: input ligand: FMN 200 uM
Numeric only. Scale: nM

For the sequence shown here, GAAAACGCAGAGGAUAUUUCAGAUCAAAGCUGCAAAGAAGGCUGCACAUGAGGAUCACCCAUGUGGUCUUCAAA [jl-ex6-4.02 ViennaUCT mod] (Eterna round: R97, puzzle: Exclusion 6) , give the reported apparent KD of MS2 coat protein.
386

And what about the sequence GAUUAACAUGAGGAUCACCCAUGUGAGGAUAUGGACUUGCUCACUUUCCGAUUCGAGUCUAGAAGGCGCAUCUU [1986#116] (Eterna round: R97, puzzle: Exclusion 1) ?
30.6

Try the sequence UAUAUAUAGUAAGGAUAUGUAUUUAUUUUGUAAACAGAAGGUACUGACAUGAGGAUCACCCAUGUUUUAGUGUGGGCAUGUAGA [JMF's solution 22] (Eterna round: R96, puzzle: Exclusion NG 1)
147

# repeat for UGUUGUCGCGCAGGAUAUGGCCAACAGGCCCUAGGAUAUCCGAAAGGAGAAGGAGCGCCAACAGGCGAGAAGGGCGGGACAACU [pwkr exNG2 2xF7 2xFMN.16] (Eterna round: R96, puzzle: Exclusion NG 2)
19.5

GUGCAACAUGAGGAUCACCCAUGUGAGGAUAUGCGAAUUUCAUCAAAAGAUGAAAUUUGCAGAAGGCACAGCAC [Omei Ex1 A13] (Eterna round: R97, puzzle: Exclusion 1) ?
20.5

====

System: MS2 coat protein
MEASUREMENT NOTES: apparent KD of MS2 coat protein; designed switch direction (-1 OFF switch, 1 ON switch): -1; higher = weaker reporter binding
CONDITION DETAILS: input ligand: none
OBSERVED PROPERTY: apparent KD of MS2 coat protein (nM)
Express it in nM; write the number only.

Data request, read-out apparent KD of MS2 coat protein, for UACAUGAGGAUCACCCAUGUUUUGUCGUGUAUGGUAUUUAUCUAGGAUAUCAGGUUAUUUAUUUAUGAGAAGGAGAAUAUUAAU [JMF's solution 25] (Eterna round: R96, puzzle: Exclusion NG 3)
34.3

Consider next the sequence AGAUUAAAUGAGGAUAUCGUAUUGGAUAUAGUGCGAGAAGGCAUGACAUGAGGAUCACCCAUGUAGUGUUGGGA [JR_Ex6_Sub009] (Eterna round: R97, puzzle: Exclusion 6) in the same way.
43.4

What about this sequence? CAUUAUGUUGAGGAUAUGCGCCGGAAAACUGACGCAGAAGGCGACACAUGAGGAUCACCCAUGUCAGUUUUCGA [salish99_ex6_r004_426] (Eterna round: R97, puzzle: Exclusion 6)
273

Another: AAAAAAAGACAAGAGGAGAUUCGUCUUAAAAAUCCUCAAACAUGAGGAUCACCCAUGUAAAAUGAUCGAAAGAUCAA [Mat - Sensor v2 - ver2 - JL mod - D39] (Eterna round: R96, puzzle: Sensor v2, turn-off variant 2)
29.2

Likewise for UCUGGAGCAGGAUAUAUAUGACGUGCUUCGGCACGGUGAGUACAUGAGGAUCACCCAUGUAGAAGGGCUCCAGA [Exclusion 2 (Mod of Brourd's E2/9-D2)] (Eterna round: R97, puzzle: Exclusion 2) ?
20.3

Thanks! And UAAUUAAGUGUGAGGAUAUGCUGGUCCUUGGAUCAGCAGAAGGCACAUGAGGAUCACCCAUGUAAAUUAUUUAU [Mat - Exclusion 4 - JL Mod - D60] (Eterna round: R96, puzzle: Brourd's mod of Exclusion 4) ?
76.5

Input UCGUGUAUAGAGGAUAUAUUAUUUAUUUAAACAAUAGAAGGCUAAACAUGAGGAUCACCCAUGUAUUUGGUUUU [JR_Ex6_Sub052] (Eterna round: R97, puzzle: Exclusion 6)
21.8

And then UUGAGACAUGAGGAUCACCCAUGUAAGGAUAUAGUCGUCUGGUGGUCUCGGGUGGUGGCUAGAAGGUGCGUGCG [-15.7, 14.3 kcal, A 20%] (Eterna round: R97, puzzle: Exclusion 1) , what is it?
239

Would you kindly repeat that for AAUGCUGGUGUGAGGAUAUCAGCUGAAGAACAGAAUGAGAAGGCACAUGAGGAUCACCCAUGUAAAAGAAUAAA [Atbelaqu] (Eterna round: R97, puzzle: Brourd's mod of Exclusion 4) ?
25.6

====

Kindly supply the reported apparent KD of MS2 coat protein values for the records listed here.
Tested on: MS2 coat protein
MEASUREMENT NOTES: apparent KD of MS2 coat protein; designed switch direction (-1 OFF switch, 1 ON switch): -1; higher = weaker reporter binding
CONDITION DETAILS: input ligand: microRNA oligo, concentration not stated
The figure you give is taken to be in nM; do not add the unit.

Requested read-out: apparent KD of MS2 coat protein. Entry: AAGAGCAAGGCAGGAUAUCACAUGAGGAUCACCCAUGUAUCCGAAAGAACAACGCCCGCGUUGUGUGAGAAGGGUCUAUGCAGG [Eternabot solution 10] (Eterna round: R96, puzzle: Exclusion NG 2)
61.6

// repeat for GCGUGGGCCGCAGGAUAUGAGGCCGUGGGUUCACCCAAACACACAUGAGGAUCACCCAUGUGUCAUCAGAAGGGCGAGCCUACU [Sozasora] (Eterna round: R96, puzzle: Exclusion NG 2) and report
17.5

Could you do the same for AGUCCAGACGGACCCUCUAACAUGAGGAUCACCCAUGUAGCGGAGGAUAUCCGAAUUUGGGCGACGGAGAAGGCCGUUGCAGGG [Edsosobi] (Eterna round: R96, puzzle: Exclusion NG 3) , please?
27

Similarly, UGUUGUUACGCAGGAUAUGAGGAUCACCCAUAUUAGGAUAUCGAAAGAGAAUUUCUGAGGAUCACCCAGAAGGGCGGGUUAACA [pwkr exNG2 2xF5 2xFMN.36] (Eterna round: R96, puzzle: Exclusion NG 2) ?
38.5

Okay, and ACCUACCAGCUAGGAUAUGCAGUACAGUAAAAUGUAGAAGGAGCACGAUCCAGACAUGAGGAUCACCCAUGUGGGCGGUAGGCA [Errage] (Eterna round: R96, puzzle: Exclusion NG 1) ?
14
